assayed_system: Estrogen receptor (Homo sapiens) (UniProt P03372)
Sequence (P03372 whole entry, looked up): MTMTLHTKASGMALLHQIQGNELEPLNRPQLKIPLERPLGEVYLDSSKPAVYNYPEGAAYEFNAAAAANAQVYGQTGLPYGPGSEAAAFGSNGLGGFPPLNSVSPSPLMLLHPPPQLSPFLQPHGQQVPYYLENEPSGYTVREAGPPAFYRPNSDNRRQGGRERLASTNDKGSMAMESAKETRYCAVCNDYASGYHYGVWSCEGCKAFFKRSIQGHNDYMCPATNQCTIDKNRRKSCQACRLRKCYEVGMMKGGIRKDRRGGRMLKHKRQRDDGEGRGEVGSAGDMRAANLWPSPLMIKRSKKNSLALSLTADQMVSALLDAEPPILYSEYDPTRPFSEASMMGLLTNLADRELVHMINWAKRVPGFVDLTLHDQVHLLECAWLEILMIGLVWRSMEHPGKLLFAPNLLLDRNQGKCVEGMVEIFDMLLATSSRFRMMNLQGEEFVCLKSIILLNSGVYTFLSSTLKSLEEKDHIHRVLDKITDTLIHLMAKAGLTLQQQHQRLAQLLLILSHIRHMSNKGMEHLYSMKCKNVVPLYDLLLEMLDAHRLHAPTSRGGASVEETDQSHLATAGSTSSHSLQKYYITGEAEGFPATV
assay_name: OT_ER_ERaERa_1440: Odyssey Thera (OT) 24-hour HEK293T Protein-Complementation Assay for Estrogen Receptor-alpha/-alpha Homodimer (AID 2283349);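 note: hits raise fluorescence above DMSO for agonists and antagonists alike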
The source made the active and inactive calls. Rule for the calls: active = hit-call score of the fitted dose curve at least 0.9, where 1 is the maximum; inconclusive = response in the unintended direction; inactive = score below 0.9.
observable: AC50

Lookup result for `CC1=CC=C(C(C)C)CC1` ; measured AC50: 31.5 µM (active)

Lookup result for `CCc1cccc(C)c1N` ; measured AC50: 74.6 µM (active)

Lookup result for `CCCCCCOC(=O)CCCCC(=O)OCCCCCC` ; measured AC50: inactive

Lookup result for `O=C(O)/C=C/c1ccccc1` ; measured AC50: 34.2 µM (active)

Lookup result for `Oc1ccc(-c2ccccc2)c(Cl)c1` ; measured AC50: inactive

Below are 2 molecules. Give each one its AC50.
1. CCCCC/C=C\C/C=C\CCCCCCCC(=O)O
2. CC(CCC(=O)O)(c1ccc(O)cc1)c1ccc(O)cc1

1: inactive; 2: 55.5 µM (active)
